targetOrTestSystem: human TAS1R2-WT/TAS1R3-WT (Homo sapiens, UniProt Q7RTX0+Q8TE23)
Construct: expressed in transfected cells; host or cells: HEK293T-Gα16gust44
Sequence (Q8TE23 20-839): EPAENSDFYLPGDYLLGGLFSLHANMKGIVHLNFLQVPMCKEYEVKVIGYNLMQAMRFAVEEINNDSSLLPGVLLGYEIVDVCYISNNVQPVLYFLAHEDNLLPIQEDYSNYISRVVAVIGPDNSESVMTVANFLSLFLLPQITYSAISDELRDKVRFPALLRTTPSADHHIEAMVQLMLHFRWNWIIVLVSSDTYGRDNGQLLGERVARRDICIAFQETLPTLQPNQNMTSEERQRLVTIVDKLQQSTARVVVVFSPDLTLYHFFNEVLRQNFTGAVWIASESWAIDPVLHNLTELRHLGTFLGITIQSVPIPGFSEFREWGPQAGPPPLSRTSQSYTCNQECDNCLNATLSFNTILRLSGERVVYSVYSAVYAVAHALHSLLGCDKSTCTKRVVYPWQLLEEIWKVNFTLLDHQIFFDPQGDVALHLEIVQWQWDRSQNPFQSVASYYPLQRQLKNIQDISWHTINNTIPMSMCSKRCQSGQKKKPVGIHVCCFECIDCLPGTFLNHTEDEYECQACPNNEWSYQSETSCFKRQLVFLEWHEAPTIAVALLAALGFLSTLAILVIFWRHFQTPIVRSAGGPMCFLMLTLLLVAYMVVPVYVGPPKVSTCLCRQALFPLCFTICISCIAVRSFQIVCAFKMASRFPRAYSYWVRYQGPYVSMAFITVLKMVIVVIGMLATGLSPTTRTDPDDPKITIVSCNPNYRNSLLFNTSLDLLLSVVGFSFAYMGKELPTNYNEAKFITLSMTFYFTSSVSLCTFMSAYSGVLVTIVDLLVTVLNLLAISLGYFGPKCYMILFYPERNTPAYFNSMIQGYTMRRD
Sequence (Q7RTX0 21-852): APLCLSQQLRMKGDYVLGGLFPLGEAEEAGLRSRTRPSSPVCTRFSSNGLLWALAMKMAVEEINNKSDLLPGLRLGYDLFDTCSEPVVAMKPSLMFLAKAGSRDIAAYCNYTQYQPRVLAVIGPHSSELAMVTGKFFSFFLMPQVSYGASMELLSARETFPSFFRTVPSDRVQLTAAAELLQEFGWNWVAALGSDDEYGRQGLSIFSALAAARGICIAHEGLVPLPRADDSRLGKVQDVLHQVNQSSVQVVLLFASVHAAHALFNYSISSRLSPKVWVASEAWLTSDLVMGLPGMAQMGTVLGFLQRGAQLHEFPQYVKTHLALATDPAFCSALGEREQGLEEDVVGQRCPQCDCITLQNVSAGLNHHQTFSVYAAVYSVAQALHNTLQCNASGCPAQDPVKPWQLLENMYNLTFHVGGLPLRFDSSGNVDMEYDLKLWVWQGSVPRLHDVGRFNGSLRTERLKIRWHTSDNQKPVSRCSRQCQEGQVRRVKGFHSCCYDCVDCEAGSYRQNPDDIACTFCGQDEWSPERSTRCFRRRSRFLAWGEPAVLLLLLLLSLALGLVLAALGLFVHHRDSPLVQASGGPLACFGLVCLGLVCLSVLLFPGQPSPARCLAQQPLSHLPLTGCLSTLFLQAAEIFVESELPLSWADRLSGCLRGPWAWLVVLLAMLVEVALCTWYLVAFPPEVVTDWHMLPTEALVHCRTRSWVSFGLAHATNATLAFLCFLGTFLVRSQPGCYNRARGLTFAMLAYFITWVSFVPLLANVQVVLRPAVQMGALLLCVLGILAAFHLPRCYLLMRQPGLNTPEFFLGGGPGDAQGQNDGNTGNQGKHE
testDescription: Calcium mobilisation assay, HEK293T-Gα16gust44 cells, human sweet taste receptor WT
Type: cell-based
experimentalParameters: TAS1R2-WT + TAS1R3-WT; read-out: EC50
endpointLabel: EC50 (µM)
A number alone suffices; assume µM.

Sample records with EC50:
CC1=CC(=O)NS(=O)(=O)O1; 705
COc1ccc(CCC(=O)c2c(O)cc(O[C@@H]3O[C@H](CO)[C@@H](O)[C@H](O)[C@H]3O[C@@H]3O[C@@H](C)[C@H](O)[C@@H](O)[C@H]3O)cc2O)cc1O [NHDC, neohesperidin dihydrochalcone]; 76.7

Field: next compound
Q: # input compound: C[C@H](CC[C@@H](O[C@@H]1O[C@H](CO[C@@H]2O[C@H](CO)[C@@H](O)[C@H](O)[C@H]2O)[C@@H](O)[C@H](O)[C@H]1O[C@@H]1O[C@H](CO)[C@@H](O)[C@H](O)[C@H]1O)C(C)(C)O)[C@H]1CC[C@@]2(C)[C@@H]3CC=C4[C@@H](CC[C@H](O[C@@H]5O[C@H](CO[C@@H]6O[C@H](CO)[C@@H](O)[C@H](O)[C@H]6O)[C@@H](O)[C@H](O)[C@H]5O)C4(C)C)[C@]3(C)[C@H](O)C[C@]12C [Mogroside V, mogroside V] ; wanted: its EC50
Ans: 17.3
